system: follistatin; assay: Follistatin mRNA expression in HepG2 cells; type: cell-based, human; conditions: Experiment 2, 1 nM insulin treated; HepG2; 100 nM oligomeric compound
In the oligonucleotide strings, read from the 5' end, every base follows the letter of its sugar. An asterisk marks phosphorothioate; unmarked linkages are phosphodiester. Other units and linkages are bracketed, terminal groups are in braces. A string of capitals states the bases alone. e = 2'-O-(2-methoxyethyl) (MOE); [5mC] = 5-methylcytosine
recorded_endpoint: Follistatin (% UTC)

substance	test_target	data_value
327934 (antisense eG*eG*eT*eA*e[5mC]*eA*eA*eT*e[5mC]*eA*eA*e[5mC]*eG*eG*eT*e[5mC]*eG*eA*eT*eG*eG*eT) [compound 327934]	follistatin	103 % UTC
327954 (antisense eA*e[5mC]*eA*eA*eA*eG*eT*eT*e[5mC]*eT*eG*eT*eG*eA*eT*eG*e[5mC]*eA*e[5mC]*eT*eG*eA) [compound 327954]	follistatin	105 % UTC
327890 (antisense eA*eG*e[5mC]*eA*e[5mC]*eA*eA*eA*e[5mC]*eT*eA*e[5mC]*eT*eA*e[5mC]*e[5mC]*eT*e[5mC]*eA) [compound 327890]	follistatin	115 % UTC
327889 (antisense eG*eT*eG*eG*eT*eA*eA*eT*e[5mC]*e[5mC]*e[5mC]*eT*eG*eG*e[5mC]*eA*eA*eT*eG*eT*eG*eA*eT) [compound 327889]	follistatin	72 % UTC
327880 (antisense eA*e[5mC]*eA*eA*eA*eT*eT*e[5mC]*eG*eG*eT*eT*e[5mC]*eT*eA*e[5mC]*eA*eG*eG*eG*eT*eA) [compound 327880]	follistatin	149 % UTC

----------
In this section, each of the substances is paired with its reported Glut4.
test system: Glut4; assay: Glut4 mRNA expression in adipocytes (real-time PCR); format: cell-based, human; conditions: Table 20; adipocyte differentiation assay as in Example 13
In the oligonucleotide strings, read from the 5' end, every base follows the letter of its sugar. An asterisk marks phosphorothioate; unmarked linkages are phosphodiester. Other units and linkages are bracketed, terminal groups are in braces. A string of capitals states the bases alone. e = 2'-O-(2-methoxyethyl) (MOE); [5mC] = 5-methylcytosine; d = 2'-deoxy (DNA)

substance	Glut4
340927 (antisense eT*eG*eA*eG*e[5mC]*dT*dA*d[5mC]*dA*dG*dT*dG*d[5mC]*dT*dT*e[5mC]*eA*eT*e[5mC]*eT*e[5mC]*eA) [compound 340927]	0.54
338664 (antisense e[5mC]*eA*eG*eA*e[5mC]*eT*e[5mC]*e[5mC]*e[5mC]*eA*eA*e[5mC]*eT*eG*eA*e[5mC]*e[5mC]*eA*eG*eA) [compound 338664]	1.81
328382 (e[5mC]*eA*eG*eA*e[5mC]*dT*d[5mC]*d[5mC]*d[5mC]*dA*dA*d[5mC]*dT*dG*dA*e[5mC]*e[5mC]*eA*eG*eA) [compound 328382]	0.85
327901 (antisense eT*eG*eA*eG*e[5mC]*eT*eA*e[5mC]*eA*eG*eT*eG*e[5mC]*eT*eT*e[5mC]*eA*eT*e[5mC]*eT*e[5mC]*eA) [compound 327901]	0.19

----------
test system: HuVECs; assay: Endothelial tube formation assay in HuVECs; details: 75 nM oligomeric compound, Table 59
In the oligonucleotide strings, read from the 5' end, every base follows the letter of its sugar. An asterisk marks phosphorothioate; unmarked linkages are phosphodiester. Other units and linkages are bracketed, terminal groups are in braces. A string of capitals states the bases alone. e = 2'-O-(2-methoxyethyl) (MOE); [5mC] = 5-methylcytosine
recorded_endpoint: % Activity Relative to UTC (tube formation) (%)

substance	test_target	readout_units	data_value
342672 (antisense eA*eT*eA*e[5mC]*e[5mC]*eG*e[5mC]*eG*eA*eT*e[5mC]*eA*eG*eT*eG*e[5mC]*eA*eT*e[5mC]*eT*eT*eT) [compound 342672]	HuVECs	%	60.0
327949 (antisense e[5mC]*eA*e[5mC]*eA*eA*eA*eT*eT*e[5mC]*eG*eG*eA*eT*e[5mC]*eT*eA*e[5mC]*eA*eG*eG*eG*eT*eA) [compound 327949]	HuVECs	%	66.7
327897 (antisense eA*e[5mC]*eA*eG*eG*e[5mC]*e[5mC]*eG*eG*eG*eA*e[5mC]*eA*eA*eG*eT*eG*e[5mC]*eA*eA*eT*eA) [compound 327897]	HuVECs	%	40.0
